The origin of these recorded values is ChEMBL document CHEMBL1275577.

Test system: Clostridium acetobutylicum
Assay: Antimicrobial activity against Clostridium acetobutylicum by Wadsworth agar dilution method
Type: functional
Entries annotated with measured MIC50
measurement_label: MIC50 (µg/mL)

1. CN[C@H](CC(C)C)C(=O)N[C@H]1C(=O)N[C@@H](CC(N)=O)C(=O)N[C@H]2C(=O)N[C@H]3C(=O)N[C@H](C(=O)N[C@H](C(=O)O)c4cc(O)cc(O)c4-c4cc3ccc4O)[C@H](O)c3ccc(c(Cl)c3)Oc3cc2cc(c3O[C@@H]2O[C@H](CO)[C@@H](O)[C@H](O)[C@H]2O[C@H]2C[C@](C)(N)[C@H](O)[C@H](C)O2)Oc2ccc(cc2Cl)[C@H]1O : 1
2. CO[C@H]1/C=C/O[C@@]2(C)Oc3c(C)c(O)c4c(O)c(c5c(nc6cc(C)ccn65)c4c3C2=O)NC(=O)/C(C)=C\C=C\[C@H](C)[C@H](O)[C@@H](C)[C@@H](O)[C@@H](C)[C@H](OC(C)=O)[C@@H]1C : 0.25
3. CC(=O)Oc1ccccc1C(=O)Nc1ncc([N+](=O)[O-])s1 [NITAZOXANIDE] : 0.5
4. NC[C@@H]1O[C@H](O[C@H]2[C@@H](O)[C@H](O[C@@H]3[C@@H](O)[C@H](N)C[C@H](N)[C@H]3O[C@H]3O[C@H](CN)[C@@H](O)[C@H](O)[C@H]3N)O[C@@H]2CO)[C@H](N)[C@@H](O)[C@@H]1O : 256
